target: Gal4 DNA binding domain fused to the LBD of LXRβ in HEK293 cells (Homo sapiens (Human)); assay: cell-based; details: Biological Test Example 2, agonist mode; read-out: Cell LXRβ EC50
Sequence (P55055 222-460 limits assumed): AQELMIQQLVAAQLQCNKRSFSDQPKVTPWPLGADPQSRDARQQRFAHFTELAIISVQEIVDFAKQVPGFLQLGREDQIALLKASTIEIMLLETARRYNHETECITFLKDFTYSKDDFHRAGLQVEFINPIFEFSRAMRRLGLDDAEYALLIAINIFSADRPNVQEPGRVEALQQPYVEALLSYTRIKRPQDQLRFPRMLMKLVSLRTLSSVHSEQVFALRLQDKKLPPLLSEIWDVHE
pEC50: −log10 of the molar value.
observation.type: pEC50

1. CS(=O)(=O)c1cc(N2CCN(C[C@H]3CC[C@H](C(F)(F)F)CC3)[C@@H](c3ccccc3)C2)ccc1CO (single isomer, unassigned) [48-45] :: 6.85
2. CS(=O)(=O)c1cccc(N2CCN(C[C@H]3CC[C@@]4(CC3)CC4(F)F)[C@H](c3ccccc3)C2)c1 (single isomer, unassigned) [48-70] :: 5.43
3. CS(=O)(=O)c1cccc(N2CCN(C[C@H]3C[C@@H]4[C@H](C3)C4(F)F)[C@@H](c3ccccc3)C2)c1 [48-64] :: 6.39
4. CS(=O)(=O)c1cccc(N2CCN(C[C@H]3CC[C@H](C(F)(F)F)CC3)[C@H](c3ccccc3Cl)C2)c1 (single isomer, unassigned) [48-47] :: 5.86

* * *

biological target: LXR β LBD protein (Homo sapiens (Human), UniProt P55055); test: biochemical; format: binding; conditions: read-out: LXRβ Binding Ki
Sequence (P55055 222-460 limits assumed): as above
pKi: −log10 of the molar value.
observation.type: pKi

1) CS(=O)(=O)c1cccc(N2CCN(Cc3ccc(OC(F)F)cc3)[C@@H](c3ccccc3)C2)c1 :: 6.35
2) CS(=O)(=O)c1cccc(N2CCN(c3nccc(C(F)(F)F)n3)[C@H](c3ccc(F)cc3)C2)c1 :: 7.44
3) CC(C)[C@@H]1CN(c2ccc(F)c(S(C)(=O)=O)c2)CCN1c1ncc(C(=O)N2CC(O)C2)c(C(F)(F)F)n1 :: 6.40
4) COCCN(C)C(=O)c1cnc(N2CCN(c3ccc(F)c(S(C)(=O)=O)c3)C[C@H]2C(C)C)nc1C(F)(F)F :: 6.68
5) CC(C)[C@@H]1CN(c2ccc(F)c(S(C)(=O)=O)c2)CCN1c1ncc(CN2CCOCC2)c(C(F)(F)F)n1 :: 7.44
6) CC(C)[C@@H]1CN(c2ccc(F)c(S(C)(=O)=O)c2)CCN1c1ncc(C(=O)N2CC(N)C2)c(C(F)(F)F)n1 :: 6.29
7) CC(C)[C@@H]1CN(c2ccc(F)c(S(C)(=O)=O)c2)CCN1c1ncc(C(=O)NC2CN(C(=O)OC(C)(C)C)C2)c(C(F)(F)F)n1 :: 6.48
8) Cc1ccccc1[C@H]1CN(c2cccc(S(C)(=O)=O)c2)CCN1Cc1ccc(C(F)(F)F)nc1 (single isomer, unassigned) :: 5.70
9) CC(C)[C@@H]1CN(c2ccc(F)c(S(C)(=O)=O)c2)CCN1c1nccc(C#N)n1 :: 7.33
10) CC(C)[C@@H]1CN(c2ccc(CO)c(S(C)(=O)=O)c2)CCN1c1nc(C(F)(F)F)c(C(N)=O)s1 :: 6.95
11) Cc1nc(N2CCN(c3ccc(F)c(S(C)(=O)=O)c3)C[C@H]2C(C)C)ncc1Cl :: 8.05

* * *

target: LXR β LBD protein (Homo sapiens (Human), UniProt P55055); assay: biochemical; type: biochemical
Sequence (P55055 222-460): as the sequence (P55055 222-460 limits assumed) above
observation.type: FRET LXRβ efficacy

1) CS(=O)(=O)c1cccc(N2CCN(Cc3ccc(C(F)(F)F)nc3)[C@H](c3ccccc3Cl)C2)c1 (single isomer, unassigned) [46-56] :: 2252 (40) %
2) CS(=O)(=O)c1cccc(N2CCN(Cc3ccc(OC(F)(F)F)cc3)[C@H](c3ccccc3)C2)c1 (single isomer, unassigned) [46-22] :: 1273 (73) %
3) CS(=O)(=O)c1cccc(N2CCN(Cc3ccc(OC(F)F)cc3)[C@H](c3ccccc3)C2)c1 [46-10] :: 24999 (94) %
4) CS(=O)(=O)c1cccc(N2CCN(Cc3ccc(C(F)(F)F)cc3)[C@@H](c3ccccc3)C2)c1 (single isomer, unassigned) [46-15] :: 418 (45) %
5) CS(=O)(=O)c1cccc(N2CCN(Cc3ccc(C(F)(F)F)nc3)[C@@H](c3ccccc3Cl)C2)c1 (single isomer, unassigned) [46-57] :: 55 (56) %
